Tested on: MKN1 cells (gastric cancer, wt amplified)
assay_comment: MKN1 CTG proliferation assay (120 h), assay 1
Type: cell-based
condition: Homo sapiens, MKN-1, CellTiter-Glo, 400 cells per well
observed_property: IC50 (µM)
Numbers only, in µM.

-- ask Report IC50 for `C[C@H]1CNCCN1c1nccc(-c2noc3c2CCC[C@@]32CCCc3sc(N)c(C#N)c32)n1` please.
-- reply 0.29

* * *

Please provide measured solubility at 24 h for the entries that follow.
assay_comment: Solubility measurement (DMSO solution precipitation method)
Type: physicochemical
condition: aqueous buffer, kinetic from dmso stock; McIlvaine buffer pH 4.5, 24 h, ambient temperature; read-out: solubility pH 4.5

C[C@H](Oc1ccnc(-c2noc3c2CCC[C@@]32CCCc3sc(N)c(C#N)c32)n1)[C@@H]1CCCN1C    > 117 µg/mL
C[C@@H](O)CN1CCCN(c2nccc(-c3onc4c3CCC[C@@]43CCCc4sc(N)c(C#N)c43)n2)[C@@H](C)C1    > 153 µg/mL
C[C@H]1CN(C2CCOC2)CCCN1c1nccc(-c2onc3c2CCC[C@@]32CCCc3sc(N)c(C#N)c32)n1 (stereo partly shown)    > 110 µg/mL

Now consider a different compound.
-- ask Report solubility at 24 h for `CCN1[C@H]2C[C@H]2C[C@H]1[C@H](C)Oc1nccc(-c2onc3c2CCC[C@@]32CCCc3sc(N)c(C#N)c32)n1` please.
-- reply > 125 µg/mL

The measured values listed here are drawn from patent US20250129096A1.
